target: Beta Secretase enzyme (BACE) (Homo sapiens (Human), UniProt P56817); test: In vitro enzymatic BACE FRET assay; assay type: biochemical; details: read-out: BACE1 Enzyme assay IC50
Sequence (P56817 46-501): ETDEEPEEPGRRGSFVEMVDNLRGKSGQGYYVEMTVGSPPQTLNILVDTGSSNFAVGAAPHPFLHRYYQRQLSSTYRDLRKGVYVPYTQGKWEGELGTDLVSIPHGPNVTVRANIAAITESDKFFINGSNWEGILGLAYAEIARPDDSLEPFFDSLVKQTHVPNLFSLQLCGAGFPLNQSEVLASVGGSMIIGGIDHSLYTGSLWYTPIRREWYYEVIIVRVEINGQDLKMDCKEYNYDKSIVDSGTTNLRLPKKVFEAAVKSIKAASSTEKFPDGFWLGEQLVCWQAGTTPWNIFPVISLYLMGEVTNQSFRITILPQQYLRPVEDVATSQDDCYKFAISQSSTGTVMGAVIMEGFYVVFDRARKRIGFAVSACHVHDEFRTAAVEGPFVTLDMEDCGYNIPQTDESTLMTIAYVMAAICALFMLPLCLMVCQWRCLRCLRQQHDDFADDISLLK
quantityMeasured: IC50 (µM)
Answer with a number only, understood to be in µM.

Cc1cc(NC(=O)c2ncc(C#N)cc2F)cc([C@@]2(C(F)F)N=C(N)O[C@@H]3C[C@@H]32)c1F : 0.0335
NC1=N[C@](CF)(c2cc(NC(=O)c3ccc(OCF)cn3)ccc2Cl)[C@H]2C[C@H]2O1 : 0.0998
N#Cc1csc(C(=O)Nc2ccc(F)c([C@@]3(C(F)F)N=C(N)O[C@@H]4C[C@@H]43)c2)c1 : 1.07
C[C@]1(c2cc(NC(=O)c3ccc(Cl)cn3)ccc2F)N=C(N)O[C@@H]2C[C@@H]21 : 0.065

Provide the documented IC50 with Beta Secretase enzyme (BACE) (Homo sapiens (Human), UniProt P56817) as the system for COc1cnc(C(=O)Nc2ccc(F)c([C@@]3(C(F)F)N=C(N)O[C@@H]4C[C@@H]43)c2)nc1
0.121
